The reported measurements were obtained from ChEMBL document CHEMBL5385943.

- Tested on: Escherichia coli
- procedure_details: Antimicrobial activity against Escherichia coli assessed as reduction in microbial growth
- Assay type: functional
Provide the reported MIC of each item.
Unit µM implied. Number only.

INPUT: Please look at this compound and report its MIC: O=C1S/C(=C\c2cnc(C(F)(F)F)nc2)C(=O)N1C(=O)c1ccc(F)cc1
OUTPUT: 15.1

INPUT: Please look at this compound and report its MIC: O=C1S/C(=C\c2cnc(C(F)(F)F)nc2)C(=O)N1C(=O)c1ccc(Br)cc1
OUTPUT: 22.6

INPUT: Please look at this compound and report its MIC: O=C1S/C(=C\c2cnc(C(F)(F)F)nc2)C(=O)N1C(=O)c1ccc([N+](=O)[O-])cc1
OUTPUT: 11.7
